Recorded measurements of IC50, one per entry
assayExplanation: Inhibition of trypsin-like activity of rabbit 20S proteasome at pH 8 after 15 mins
Parameters: species or system Oryctolagus cuniculus
runParameters: read-out: IC50
Answer with the figure and its unit, nothing else.

Below: 2 compounds and their reported IC50.
INSERT INTO measurements (entrysmiles, experimentalvalue) VALUES
  ('C=CCN(CC=C)S(=O)(=O)c1ccc(NC(=O)c2ccc(C(C)(C)C)cc2)cc1', '4.5 µM'),
  ('CCc1ccc(-c2cc(C(=O)Nc3ccc(S(=O)(=O)NC(C)=O)cc3)c3ccccc3n2)cc1', '25.6 µM');

Noted for Cc1ccc(-c2nnc(Nc3cccc(O)c3)c3ccccc23)cc1S(=O)(=O)NC(C)(C)CO : its IC50 reads 67.8 µM
